Cited source for all entries: ChEMBL document CHEMBL1201862

tested on: SW-620; assay: NCI tumour cell line growth inhibition, 48 h
Active and inactive are the calls of the source. Cut-off read from the data, not from the text of the source: active = GI50 up to about 1.1 µM and inactive = higher.
Returns: one label drawn from active, inactive

Study these solved cases before continuing.
COC(COC(N)=O)C1=C(N2CC2)C(=O)C(C)=C(N2CC2)C1=O (stereo not given) [CARBOQUONE] ... active
Clc1ccc(Cc2nc3ccccc3nc2-c2cccc(Br)c2)cc1 ... inactive
NNC(=O)c1cccc2c1Oc1ccccc1S2 ... inactive
CCOc1ccccc1/N=N/c1c(-c2ccccc2)nn(C(=O)CC(=O)Nc2cccc(Cl)c2)c1-c1ccccc1 ... inactive

# fetch the recorded call for C(=C\c1cc[n+](CCc2ccccc2)cc1)/c1ccccc1 here
inactive

Could you check what this test reported for COc1ccc([C@H]2C=C(c3cc(F)c(Cl)cc3Cl)N=c3s/c(=C\c4ccc(-c5ccc(Cl)cc5Cl)o4)c(=O)n32)cc1 ?
inactive

Name the outcome recorded for Cc1c(C2=C(Br)C(=O)N(C)C2=O)c(=O)n(C)c(=O)n1C in the assay.
inactive

Can you look up the reported call for CCN(CCCl)CCCNc1c2ccccc2nc2ccc(OC)cc12 for me?
active

// param item: c1ccc2c(c1)CCN(C1=NCCO1)C2 ; yields the recorded call
inactive

Look up the recorded call for CC(=O)Oc1c2ccsc2c(OC(C)=O)c2ccsc12 in this test.
active

----------
The compounds listed here are annotated with their GI50.
tested on: EKVX; experiment: NCI tumour cell line growth inhibition, 48 h
Calls of active or inactive are those of the source. No stated cut-off is given here; in the data, active = GI50 up to about 1.1 µM and inactive = higher.

Answered cases to consult:
CC12CC3(C)CC(C)(C1)CC(N=[N+]=[N-])(C2)C3 ... > 100 µM (inactive)
CCCCc1c2c(nc3c1CCc1cc(C=O)c(N)nc1-3)/C(=C/c1ccccc1)CCC2 ... 48.4 µM (inactive)
O=C(Nc1nc2ncn(CCNCc3ccccc3)c2c(=O)[nH]1)c1ccccc1 ... > 100 µM (inactive)

Item: CC(C)OC(=O)NNc1cccc(Cl)c1 Test system: EKVX Read-out: GI50 Value: ?
> 100 µM (inactive)

Provide the documented GI50 with EKVX as the system for O=C(O)C/C(=C\c1ccccc1)C(=O)O
> 100 µM (inactive)

Find the measured GI50: item Cc1cc2c(=O)cc(-c3ccc(Cl)c(Cl)c3)oc2c(C(=O)O)c1C , target or system EKVX.
> 100 µM (inactive)

----------
system: XF498; assay: NCI tumour cell line growth inhibition, 48 h
Active and inactive are the calls of the source. No stated cut-off is given here; in the data, active = GI50 up to about 1.1 µM and inactive = higher.
A correct response names exactly one class from Yes (active), No (inactive)

Cc1[nH]c(=O)[nH]c(=O)c1/C=C/C(=O)NC(CO)C[S+]([O-])C[S+](C)[O-] (stereo unspecified) ... No
CCN(CCCl)CCCNc1c2ccccc2nc2ccc(OC)cc12 ... Yes
CCCOc1ccc(/C=C\c2cc(OC)c(OC)c(OC)c2)cc1 ... No
CCOC(=O)C(C)(c1cn(C)c2ccccc12)c1cn(C)c2ccccc12 ... No
COc1cc(C(=O)N[C@H]2CCc3cc(OC)c(OC)c(OC)c3-c3ccc(SC)c(=O)cc32)cc(OC)c1OC ... Yes

Dear all, I need the recorded test outcome for Oc1cc2c(cc1O)-c1[nH]ncc1CC2 , thank you.
No

Assay outcome for CC(CCC[C@H](C)CO)[C@H]1[C@@H](O)C(O)C2[C@@H]3C[C@@H](O)C4(O)C[C@@H](O)CC[C@]4(C)C3CC[C@@]21C (stereo partly specified) : what was it?
No
